Data origin, for the record: patent US20240174618A1

tested on: Setaria viridis (SETVI); experiment: A. Herbicidal pre-emergence efficacy, SETVI; type: in vivo; details: dosage 1280 g/ha
measured_attribute: Pre-emergence efficacy against SETVI (%)

> print(dat)
                                    molecule              test.target                    measured.attribute  value.reported
 1     O=S(=O)(CC1CC1)Oc1ccccc1Oc1ncc(Cl)cn1  Setaria viridis (SETVI)  Pre-emergence efficacy against SETVI             100
 2  Cc1cccc(Oc2ncc(Cl)cn2)c1OS(=O)(=O)CCC(F)(F)F  Setaria viridis (SETVI)  Pre-emergence efficacy against SETVI             100
 3       O=S(=O)(CCCCl)Oc1ccccc1Oc1ncc(F)cn1  Setaria viridis (SETVI)  Pre-emergence efficacy against SETVI             100
 4  O=S(=O)(CCC(F)(F)F)Oc1c(Cl)cccc1Oc1ncc(Br)cn1  Setaria viridis (SETVI)  Pre-emergence efficacy against SETVI             100
 5  O=S(=O)(CCCC(F)(F)F)Oc1c(F)cccc1Oc1ncc(Br)cn1  Setaria viridis (SETVI)  Pre-emergence efficacy against SETVI             100
 6     O=S(=O)(CCCCl)Oc1ccccc1Oc1ncc(Cl)cc1F  Setaria viridis (SETVI)  Pre-emergence efficacy against SETVI             100
 7   N#Cc1cc(Cl)cnc1Oc1ccccc1OS(=O)(=O)CCCCl  Setaria viridis (SETVI)  Pre-emergence efficacy against SETVI             100
 8   O=S(=O)(CCCCl)Oc1c(F)cccc1Oc1ncc(Cl)cn1  Setaria viridis (SETVI)  Pre-emergence efficacy against SETVI             100
 9        CCCS(=O)(=O)Oc1ccccc1Oc1ncc(Cl)cn1  Setaria viridis (SETVI)  Pre-emergence efficacy against SETVI             100
10  O=S(=O)(CCCC(F)(F)F)Oc1c(Cl)cccc1Oc1ncc(Br)cn1  Setaria viridis (SETVI)  Pre-emergence efficacy against SETVI             100
11  Cc1cccc(Oc2ncc(Cl)cn2)c1OS(=O)(=O)CC1CC1(Cl)Cl (stereo not shown)  Setaria viridis (SETVI)  Pre-emergence efficacy against SETVI             100
12  O=S(=O)(CCC1CC1)Oc1c(F)cccc1Oc1ncc(Cl)cn1  Setaria viridis (SETVI)  Pre-emergence efficacy against SETVI             100
13  O=S(=O)(CCC(F)(F)F)Oc1c(Cl)cccc1Oc1ncc(Cl)cn1  Setaria viridis (SETVI)  Pre-emergence efficacy against SETVI             100
14  O=S(=O)(CCC1CC1(Cl)Cl)Oc1c(F)cccc1Oc1ncc(Cl)cn1 (stereo not shown)  Setaria viridis (SETVI)  Pre-emergence efficacy against SETVI              90
15       CCCCS(=O)(=O)Oc1ccccc1Oc1ncc(Cl)cn1  Setaria viridis (SETVI)  Pre-emergence efficacy against SETVI             100
16  O=S(=O)(CC1CCCO1)Oc1c(F)cccc1Oc1ncc(Cl)cn1 (stereo not shown)  Setaria viridis (SETVI)  Pre-emergence efficacy against SETVI             100
17    CC(C)CCS(=O)(=O)Oc1ccccc1Oc1ncc(Cl)cn1  Setaria viridis (SETVI)  Pre-emergence efficacy against SETVI             100
18   O=S(=O)(CCCCl)Oc1cccc(F)c1Oc1ncc(Cl)cn1  Setaria viridis (SETVI)  Pre-emergence efficacy against SETVI             100
19  Cc1cccc(Oc2ncc(F)cn2)c1OS(=O)(=O)CCC(F)(F)F  Setaria viridis (SETVI)  Pre-emergence efficacy against SETVI             100
20  O=S(=O)(CC=C(Cl)Cl)Oc1c(Br)cccc1Oc1ncc(Cl)cn1  Setaria viridis (SETVI)  Pre-emergence efficacy against SETVI             100
21  N#Cc1cccc(Oc2ncc(Cl)cn2)c1OS(=O)(=O)CCCCl  Setaria viridis (SETVI)  Pre-emergence efficacy against SETVI             100
22    COCCS(=O)(=O)Oc1c(F)cccc1Oc1ncc(Cl)cn1  Setaria viridis (SETVI)  Pre-emergence efficacy against SETVI             100
23  Cc1cccc(Oc2ncc(F)cn2)c1OS(=O)(=O)CCCC(F)(F)F  Setaria viridis (SETVI)  Pre-emergence efficacy against SETVI             100
24  N#Cc1cccc(Oc2ncc(Cl)cn2)c1OS(=O)(=O)CC1CC(F)(F)C1  Setaria viridis (SETVI)  Pre-emergence efficacy against SETVI             100
25  O=S(=O)(CCCC(F)(F)F)Oc1c(Cl)cccc1Oc1ncc(Cl)cn1  Setaria viridis (SETVI)  Pre-emergence efficacy against SETVI             100
26  O=S(=O)(CCC(F)=C(F)F)Oc1c(Cl)cccc1Oc1ncc(Cl)cn1  Setaria viridis (SETVI)  Pre-emergence efficacy against SETVI             100
27  O=S(=O)(CCCC(F)(F)F)Oc1c(Br)cccc1Oc1ncc(F)cn1  Setaria viridis (SETVI)  Pre-emergence efficacy against SETVI             100
28  Cc1cccc(Oc2ncc(Cl)cn2)c1OS(=O)(=O)CCCC(F)(F)C(F)(F)F  Setaria viridis (SETVI)  Pre-emergence efficacy against SETVI             100
29  O=S(=O)(CC1CC(F)(F)C1)Oc1c(F)cccc1Oc1ncc(Cl)cn1  Setaria viridis (SETVI)  Pre-emergence efficacy against SETVI             100
30      O=S(=O)(Oc1ccccc1Oc1ncc(Cl)cn1)C1CC1  Setaria viridis (SETVI)  Pre-emergence efficacy against SETVI             100
31       C=CCS(=O)(=O)Oc1ccccc1Oc1ncc(Cl)cn1  Setaria viridis (SETVI)  Pre-emergence efficacy against SETVI             100
32       COCCS(=O)(=O)Oc1ccccc1Oc1ncc(Cl)cn1  Setaria viridis (SETVI)  Pre-emergence efficacy against SETVI             100
33  O=S(=O)(CCCC(F)(F)F)Oc1ccccc1Oc1ccc(Cl)cn1  Setaria viridis (SETVI)  Pre-emergence efficacy against SETVI             100
34  Cc1cccc(Oc2ncc(Cl)cn2)c1OS(=O)(=O)CC1CC(F)(F)C1  Setaria viridis (SETVI)  Pre-emergence efficacy against SETVI             100
35  O=S(=O)(CCC(F)(F)F)Oc1c(F)cccc1Oc1ncc(F)cn1  Setaria viridis (SETVI)  Pre-emergence efficacy against SETVI             100
36     O=S(=O)(CCCCCl)Oc1ccccc1Oc1ncc(Cl)cn1  Setaria viridis (SETVI)  Pre-emergence efficacy against SETVI             100
37   Cc1cccc(OS(=O)(=O)CCCCl)c1Oc1ncc(Cl)cn1  Setaria viridis (SETVI)  Pre-emergence efficacy against SETVI             100
